These measurements were taken from patent US9896443B2.

molecular target: recombinant perforin (UniProt P10820); assay type: cell-based; details: lysis of Jurkat T lymphoma cells by recombinant perforin, 0.1% BSA, 30 min pre-incubation, 4 hours at 37° C.; read-out: Jurkat IC50
Sequence (P10820 whole entry): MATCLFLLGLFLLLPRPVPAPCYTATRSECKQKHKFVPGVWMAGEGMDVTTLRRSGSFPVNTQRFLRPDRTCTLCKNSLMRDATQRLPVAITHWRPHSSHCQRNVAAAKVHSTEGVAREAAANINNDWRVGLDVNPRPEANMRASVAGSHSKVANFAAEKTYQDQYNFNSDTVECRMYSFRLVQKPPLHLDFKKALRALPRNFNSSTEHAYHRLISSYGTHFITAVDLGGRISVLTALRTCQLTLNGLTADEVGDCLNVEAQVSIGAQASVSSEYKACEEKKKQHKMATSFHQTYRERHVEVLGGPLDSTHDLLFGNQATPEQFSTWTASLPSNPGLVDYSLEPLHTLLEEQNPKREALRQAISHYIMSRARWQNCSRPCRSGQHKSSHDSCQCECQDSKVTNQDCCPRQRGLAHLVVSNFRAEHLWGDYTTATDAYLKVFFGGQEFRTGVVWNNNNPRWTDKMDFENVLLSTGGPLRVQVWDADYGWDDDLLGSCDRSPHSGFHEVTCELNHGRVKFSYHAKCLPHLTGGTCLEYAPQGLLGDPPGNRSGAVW
Attribute: log10(IC50)
MEASUREMENT LABEL: log10(IC50) (log10 of the value in µM)

LINE NOTATION: CN1Cc2cc(-c3ccc(-c4cncc(NS(=O)(=O)c5ccccc5Cl)c4)s3)ccc2C1=O
log10(IC50): 0.60
//
LINE NOTATION: O=C1c2ccc(-c3ccc(-c4cncc(NS(=O)(=O)c5ccc(F)cc5F)c4)s3)cc2CN1CCN1CCOCC1
log10(IC50): 1.23
//
LINE NOTATION: CN1Cc2cc(-c3ccc(-c4cncc(NS(=O)(=O)c5ccc(C#N)cc5)c4)s3)ccc2C1=O
log10(IC50): 0.71
//
LINE NOTATION: CN1Cc2cc(-c3ccc(-c4cncc(NS(=O)(=O)c5ccccn5)c4)s3)ccc2C1=O
log10(IC50): -0.13
//
LINE NOTATION: CN1Cc2cc(-c3ccc(-c4cncc(NS(=O)(=O)c5cccc(C(F)(F)F)c5)c4)s3)ccc2C1=O
log10(IC50): -0.04
//
LINE NOTATION: CN1Cc2cc(-c3ccc(-c4cncc(NS(=O)(=O)c5ccc(Br)cc5)c4)s3)ccc2C1=O
log10(IC50): 0.94
//
LINE NOTATION: COc1ncc(-c2ccc(-c3ccc4c(c3)CN(C)C4=O)s2)cc1NS(=O)(=O)c1ccc(F)cc1F
log10(IC50): 0.55
